Target: HSV-1 thymidine kinase (Human herpesvirus 1, UniProt P0DTH5)
Sequence (P0DTH5 whole entry): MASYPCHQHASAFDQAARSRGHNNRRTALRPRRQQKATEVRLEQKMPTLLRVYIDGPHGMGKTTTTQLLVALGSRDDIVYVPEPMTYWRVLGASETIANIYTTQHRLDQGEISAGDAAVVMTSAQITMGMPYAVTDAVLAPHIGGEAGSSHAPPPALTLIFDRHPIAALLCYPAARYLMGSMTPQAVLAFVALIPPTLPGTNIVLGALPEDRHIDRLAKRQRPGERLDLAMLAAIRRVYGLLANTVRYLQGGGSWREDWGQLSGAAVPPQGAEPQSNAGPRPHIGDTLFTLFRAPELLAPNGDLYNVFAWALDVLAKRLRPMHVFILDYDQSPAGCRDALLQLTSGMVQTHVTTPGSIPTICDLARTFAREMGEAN
measured_endpoint: pKi
As a rule, pKi stands for the negative log10 of the concentration, concentration in M.

Here are 3 compounds together with their reported answers.
Nc1nc2c(ncn2C/C=C\CO)c(=O)[nH]1 [VSA 151, cis-9-(4-hydroxy-2-butenyl)guanine] = 5.15
Nc1nc2c(ncn2CC=C(CO)CO)c(=O)[nH]1 = 4.60
Nc1nc2c(ncn2CCC(CO)CO)c(=O)[nH]1 = 5.82

Read the next record carefully.
Ask | Provide pKi, tested on HSV-1 thymidine kinase (Human herpesvirus 1, UniProt P0DTH5), for Nc1nc2c(ncn2CC(CO)CCO)c(=O)[nH]1 (stereo not shown) .
Reply | 6.22

The reported numbers originate from patent US4798833A.
